system: HEK293; experiment: Inhibition of endoplasmic reticulum stress-mediated upregulation of CHOP gene expression in tunicamycin-treated HEK293 cells after 24 hrs by bright-glo luciferase reporter gene assay; format: functional, cell-based; conditions: Homo sapiens, HEK293, 24 h
pIC50 listing for selected molecules.
Reminder that pIC50 is minus the log10 of a molar concentration.

GIVEN_SMILES	pIC50
Cc1c(C(=O)Nc2ccccc2)nnn1-c1ccccc1	5.82
Cc1c(C(=O)Nc2cccc(F)c2)nnn1-c1ccc(C(C)C)cc1	7.89
Cc1c(C(=O)Nc2ccccc2F)nnn1-c1ccc(C(C)C)cc1	7.46

Turning now to a further record.
# pIC50 of Cc1c(C(=O)Nc2ccccc2)nnn1-c1ccccc1F = 5.96
